PROTOCOL_SUMMARY: solvent solubility screen
ASSAY_CONTEXT: acetone, 40 °C, organic solvent or mixture
Counter-ions that a name gives are not always drawn.
What solubility was measured for each of the following?

Report solubility for CN1CCC2(CC1)NCC(=O)N2Cc1ccccc1 [HCl Di-Salt Hydrate, Form 1, dihydrochloride monohydrate] please.
< 10000 µg/mL

Report solubility for CN1CCC2(CC1)NCC(=O)N2Cc1ccccc1.Cl [HCl mono-salt] please.
< 10000 µg/mL

###

What solubility was measured for each of the following?
PROTOCOL_SUMMARY: solvent solubility screen
ASSAY_CONTEXT: acetonitrile, 40 °C, organic solvent or mixture
Structures can show the parent of a compound that is named as a salt.

Report solubility for CN1CCC2(CC1)NCC(=O)N2Cc1ccccc1.Cl [HCl mono-salt] please.
< 10000 µg/mL

Report solubility for CN1CCC2(CC1)NCC(=O)N2Cc1ccccc1 [HCl Di-Salt Hydrate, Form 1, dihydrochloride monohydrate] please.
< 10000 µg/mL

###

PROTOCOL_SUMMARY: solvent solubility screen
ASSAY_CONTEXT: 2-propanol, 40 °C, organic solvent or mixture
Counter-ions that a name gives are not always drawn.
MEASUREMENT_TYPE: solubility

Report solubility for CN1CCC2(CC1)NCC(=O)N2Cc1ccccc1 [HCl Di-Salt Hydrate, Form 1, dihydrochloride monohydrate] please.
< 10000 µg/mL

Report solubility for CN1CCC2(CC1)NCC(=O)N2Cc1ccccc1.Cl [HCl mono-salt] please.
< 10000 µg/mL

###

PROTOCOL_SUMMARY: pKa analysis, potentiometric titration
Format: physicochemical
ASSAY_CONTEXT: higher value; 22° C., ISA water (ionic strength 0.15, KCl)
MEASUREMENT_TYPE: pKa
Answer using only a numeral; do not append any unit.

Report pKa for `CN1CCC2(CC1)NCC(=O)N2Cc1ccccc1` please.
8

###

PROTOCOL_SUMMARY: solvent solubility screen
ASSAY_CONTEXT: methanol, 40 °C, organic solvent or mixture
Where a name gives a salt, the structure may show the parent alone.
What solubility was measured for each of the following?

Report solubility for CN1CCC2(CC1)NCC(=O)N2Cc1ccccc1.Cl [HCl mono-salt] please.
> 200 mg/mL

Report solubility for CN1CCC2(CC1)NCC(=O)N2Cc1ccccc1 [HCl Di-Salt Hydrate, Form 1, dihydrochloride monohydrate] please.
~25 mg/mL

###

PROTOCOL_SUMMARY: solvent solubility screen
ASSAY_CONTEXT: tert-butyl methyl ether, 40 °C, organic solvent or mixture
Where a name gives a salt, the structure may show the parent alone.
MEASUREMENT_TYPE: solubility

Report solubility for CN1CCC2(CC1)NCC(=O)N2Cc1ccccc1.Cl [HCl mono-salt] please.
< 10000 µg/mL

Report solubility for CN1CCC2(CC1)NCC(=O)N2Cc1ccccc1 [HCl Di-Salt Hydrate, Form 1, dihydrochloride monohydrate] please.
< 10000 µg/mL

###

PROTOCOL_SUMMARY: solvent solubility screen
ASSAY_CONTEXT: 2-butanol, 40 °C, organic solvent or mixture
Structures can show the parent of a compound that is named as a salt.
MEASUREMENT_TYPE: solubility

Report solubility for CN1CCC2(CC1)NCC(=O)N2Cc1ccccc1 [HCl Di-Salt Hydrate, Form 1, dihydrochloride monohydrate] please.
< 10000 µg/mL

Report solubility for CN1CCC2(CC1)NCC(=O)N2Cc1ccccc1.Cl [HCl mono-salt] please.
< 10000 µg/mL

###

PROTOCOL_SUMMARY: solvent solubility screen
ASSAY_CONTEXT: methyl isobutyl ketone, 40 °C, organic solvent or mixture
Counter-ions that a name gives are not always drawn.
What solubility was measured for each of the following?

Report solubility for CN1CCC2(CC1)NCC(=O)N2Cc1ccccc1 [HCl Di-Salt Hydrate, Form 1, dihydrochloride monohydrate] please.
< 10000 µg/mL

Report solubility for CN1CCC2(CC1)NCC(=O)N2Cc1ccccc1.Cl [HCl mono-salt] please.
< 10000 µg/mL

###

PROTOCOL_SUMMARY: solvent solubility screen
ASSAY_CONTEXT: 1,2-dichloroethene, 40 °C, organic solvent or mixture
Structures can show the parent of a compound that is named as a salt.
What solubility was measured for each of the following?

Report solubility for CN1CCC2(CC1)NCC(=O)N2Cc1ccccc1 [HCl Di-Salt Hydrate, Form 1, dihydrochloride monohydrate] please.
< 10000 µg/mL

Report solubility for CN1CCC2(CC1)NCC(=O)N2Cc1ccccc1.Cl [HCl mono-salt] please.
< 10000 µg/mL

###

What solubility was measured for each of the following?
PROTOCOL_SUMMARY: solvent solubility screen
ASSAY_CONTEXT: ethanol, 40 °C, organic solvent or mixture
Structures can show the parent of a compound that is named as a salt.

Report solubility for CN1CCC2(CC1)NCC(=O)N2Cc1ccccc1 [HCl Di-Salt Hydrate, Form 1, dihydrochloride monohydrate] please.
< 10 mg/mL

Report solubility for CN1CCC2(CC1)NCC(=O)N2Cc1ccccc1.Cl [HCl mono-salt] please.
~20 mg/mL

###

PROTOCOL_SUMMARY: solvent solubility screen
ASSAY_CONTEXT: dimethylacetamide, 40 °C, organic solvent or mixture
Counter-ions that a name gives are not always drawn.
What solubility was measured for each of the following?

Report solubility for CN1CCC2(CC1)NCC(=O)N2Cc1ccccc1 [HCl Di-Salt Hydrate, Form 1, dihydrochloride monohydrate] please.
< 10000 µg/mL

Report solubility for CN1CCC2(CC1)NCC(=O)N2Cc1ccccc1.Cl [HCl mono-salt] please.
~10000 µg/mL

###

PROTOCOL_SUMMARY: solvent solubility screen
ASSAY_CONTEXT: acetone:water (5%), 40 °C, organic solvent or mixture
Where a name gives a salt, the structure may show the parent alone.
MEASUREMENT_TYPE: solubility

Report solubility for CN1CCC2(CC1)NCC(=O)N2Cc1ccccc1.Cl [HCl mono-salt] please.
~20 mg/mL

Report solubility for CN1CCC2(CC1)NCC(=O)N2Cc1ccccc1 [HCl Di-Salt Hydrate, Form 1, dihydrochloride monohydrate] please.
< 10 mg/mL
